B1: F1*; the commonest letter at each place (parent)
chain: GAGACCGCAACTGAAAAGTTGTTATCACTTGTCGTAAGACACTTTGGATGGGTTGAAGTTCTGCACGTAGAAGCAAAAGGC

- Variants of: B1
- Assay Protocol: fraction ligated after 30 min (ligated reads / total reads); higher = more ligase activity
- Test Conditions: with F1*sub RNA substrate (template-directed ligation), 42 °C
Observed Property: fraction ligated

Q) Can you share its fraction ligated? I mean this variant: A39T T43A
A) 0.829

Q) Can you share its fraction ligated? I mean this variant: C40G C42A
A) 0.82

Q) Can you share its fraction ligated? I mean this variant: T25C C33T
A) 0.786

Q) Can you share its fraction ligated? I mean this variant: A41T G47T
A) 0.418

Q) Can you share its fraction ligated? I mean this variant: A37C T49C
A) 0.737

Q) Can you share its fraction ligated? I mean this variant: A36T A56G
A) 0.795

Q) Can you share its fraction ligated? I mean this variant: G34A T43A
A) 0.836

Q) Can you share its fraction ligated? I mean this variant: A24T A57G
A) 0.729

Q) Can you share its fraction ligated? I mean this variant: A24C T44A
A) 0.759

Q) Can you share its fraction ligated? I mean this variant: T30C G31C T32C C33G G38C A39G C40G A41G
A) 0.892

Q) Can you share its fraction ligated? I mean this variant: G46C G50T
A) 0.165

Q) Can you share its fraction ligated? I mean this variant: A27T A48T
A) 0.787

Q) Can you share its fraction ligated? I mean this variant: G55T A56C A57T
A) 0.0111

Q) Can you share its fraction ligated? I mean this variant: C28G A56T
A) 0.767

Q) Can you share its fraction ligated? I mean this variant: A24G
A) 0.777

Q) Can you share its fraction ligated? I mean this variant: T25A C40G
A) 0.256

Q) Can you share its fraction ligated? I mean this variant: T25C C42A
A) 0.776

Q) Can you share its fraction ligated? I mean this variant: A36G A56C
A) 0.773

Q) Can you share its fraction ligated? I mean this variant: A24C T32C
A) 0.062

Q) Can you share its fraction ligated? I mean this variant: C42G T49C
A) 0.727

Q) Can you share its fraction ligated? I mean this variant: C26A G55A
A) 0.618

Q) Can you share its fraction ligated? I mean this variant: C28A G31T
A) 0.826

Q) Can you share its fraction ligated? I mean this variant: G38C G46T
A) 0.697

Q) Can you share its fraction ligated? I mean this variant: C33A T43A
A) 0.83

Q) Can you share its fraction ligated? I mean this variant: G38A T44G
A) 0.848

Q) Can you share its fraction ligated? I mean this variant: T25G C40G
A) 0.58

Q) Can you share its fraction ligated? I mean this variant: T30G A57G
A) 0.787

Q) Can you share its fraction ligated? I mean this variant: G31A T43A
A) 0.815

Q) Can you share its fraction ligated? I mean this variant: C28T G34T
A) 0.802

Q) Can you share its fraction ligated? I mean this variant: G34T
A) 0.848

Q) Can you share its fraction ligated? I mean this variant: T32G A41T
A) 0.826

Q) Can you share its fraction ligated? I mean this variant: T25C C40G
A) 0.378

Q) Can you share its fraction ligated? I mean this variant: A56C A57G
A) 0.0212

Q) Can you share its fraction ligated? I mean this variant: T44G A56C
A) 0.775

Q) Can you share its fraction ligated? I mean this variant: C42G G47A
A) 0.805

Q) Can you share its fraction ligated? I mean this variant: C26A G55T
A) 0.249

Q) Can you share its fraction ligated? I mean this variant: A27G G34T
A) 0.804

Q) Can you share its fraction ligated? I mean this variant: T35C T44G
A) 0.823

Q) Can you share its fraction ligated? I mean this variant: T49G A56C
A) 0.109

Q) Can you share its fraction ligated? I mean this variant: A24T A36C
A) 0.805

Q) Can you share its fraction ligated? I mean this variant: C33G T35C
A) 0.825

Q) Can you share its fraction ligated? I mean this variant: G31C G47T
A) 0.0589

Q) Can you share its fraction ligated? I mean this variant: T30C T32C
A) 0.726

Q) Can you share its fraction ligated? I mean this variant: G31C A48T
A) 0.0135

Q) Can you share its fraction ligated? I mean this variant: C26T C28G
A) 0.768

Q) Can you share its fraction ligated? I mean this variant: C26A A41C
A) 0.21

Q) Can you share its fraction ligated? I mean this variant: G34C T43A
A) 0.843

Q) Can you share its fraction ligated? I mean this variant: C26T A41T
A) 0.796

Q) Can you share its fraction ligated? I mean this variant: T29C C40G
A) 0.824

Q) Can you share its fraction ligated? I mean this variant: G38C T44G
A) 0.839

Q) Can you share its fraction ligated? I mean this variant: A48G T49G
A) 0.752

Q) Can you share its fraction ligated? I mean this variant: T35G A56C
A) 0.802

Q) Can you share its fraction ligated? I mean this variant: A24G T43C
A) 0.694

Q) Can you share its fraction ligated? I mean this variant: T29G A39C
A) 0.822

Q) Can you share its fraction ligated? I mean this variant: G31C A39C
A) 0.779

Q) Can you share its fraction ligated? I mean this variant: C33A C42T
A) 0.872

Q) Can you share its fraction ligated? I mean this variant: C26T C33T
A) 0.829

Q) Can you share its fraction ligated? I mean this variant: C26G G55T
A) 0.0355

Q) Can you share its fraction ligated? I mean this variant: T45C G46C
A) 0.268

Q) Can you share its fraction ligated? I mean this variant: T25G T49C
A) 0.527

Q) Can you share its fraction ligated? I mean this variant: A24T T44G
A) 0.196

Q) Can you share its fraction ligated? I mean this variant: T30C A37G
A) 0.83

Q) Can you share its fraction ligated? I mean this variant: G38C A48T
A) 0.0108

Q) Can you share its fraction ligated? I mean this variant: T25G G50C
A) 0.142

Q) Can you share its fraction ligated? I mean this variant: T32G A36G
A) 0.813

Q) Can you share its fraction ligated? I mean this variant: A39T T45C
A) 0.676

Q) Can you share its fraction ligated? I mean this variant: A24T C28G
A) 0.373

Q) Can you share its fraction ligated? I mean this variant: T43G T45A
A) 0.763

Q) Can you share its fraction ligated? I mean this variant: C28A T35G
A) 0.812

Q) Can you share its fraction ligated? I mean this variant: T45G G55C
A) 0.0194

Q) Can you share its fraction ligated? I mean this variant: T35G G38T
A) 0.845

Q) Can you share its fraction ligated? I mean this variant: T44A T49A
A) 0.779

Q) Can you share its fraction ligated? I mean this variant: A41G G47T
A) 0.354

Q) Can you share its fraction ligated? I mean this variant: C26T C40T
A) 0.833

Q) Can you share its fraction ligated? I mean this variant: A37G T49C
A) 0.744

Q) Can you share its fraction ligated? I mean this variant: A24G T44A
A) 0.817

Q) Can you share its fraction ligated? I mean this variant: C28A A57G
A) 0.8

Q) Can you share its fraction ligated? I mean this variant: T30A A39G
A) 0.805

Q) Can you share its fraction ligated? I mean this variant: A39T A41T
A) 0.775

Q) Can you share its fraction ligated? I mean this variant: A27T A57C
A) 0.775

Q) Can you share its fraction ligated? I mean this variant: A24C A48C
A) 0.186

Q) Can you share its fraction ligated? I mean this variant: T23C A27C
A) 0.775

Q) Can you share its fraction ligated? I mean this variant: C26T A48T
A) 0.0105

Q) Can you share its fraction ligated? I mean this variant: A27C T35C
A) 0.813

Q) Can you share its fraction ligated? I mean this variant: G34C A41T
A) 0.778

Q) Can you share its fraction ligated? I mean this variant: A41T C42G
A) 0.836

Q) Can you share its fraction ligated? I mean this variant: A48T G55C
A) 0.0233

Q) Can you share its fraction ligated? I mean this variant: C28T T30A
A) 0.814

Q) Can you share its fraction ligated? I mean this variant: T23C A39G
A) 0.831

Q) Can you share its fraction ligated? I mean this variant: A37T T44A
A) 0.834

Q) Can you share its fraction ligated? I mean this variant: T43C T49C
A) 0.427
